System: Norovirus
Experiment: Inhibition of recombinant norovirus VA387 binding to human HBGA H antigen by EIA
Type: functional
Collected pEC50 values appear next to each entry.
Schema: pEC50 number; meaning minus log10 of the concentration expressed in molar units.

1. O=C(C(=O)c1ccc(C(=O)c2ccc(C(=O)C(=O)c3ccc(Sc4ccccc4)cc3)cc2)cc1)c1ccc(Sc2ccccc2)cc1 | 4.58
2. CC(C)OC(=O)CC(=O)CSc1nc(-c2ccc(F)cc2)cc(-c2cccs2)c1C#N | 5.12

Kindly consider the entry below.
Prompt: Please provide the recorded pEC50 for "CCC[n+]1cc(-c2ccccc2)nc(N2CCOCC2)n1.[I-]" , tested on Norovirus.
Completion: 5.17
